Where do these numbers come from? They come from patent US12544382B2.

# Test system: MV4-11 (leukemia) cells
# procedure-details: In vitro cell proliferation inhibition assay (CellTiter-Glo), MV4-11
# Format: cell-based, human
# condition-parameters: Homo sapiens, MV4-11, 120 h, MV4-11 cells
measured-attribute: IC50 (nM)
Give bare numbers, in nM.

Previously resolved entries follow.
>>> experimental_result("CNc1nc2ccccc2n1-c1nc(-c2c(C)nn(CC3CCCNC3)c2C(F)(F)F)cc(N2CCOC[C@H]2C)n1 (stereo partly drawn)")
580
>>> experimental_result("Cc1nn(C2CCNCC2)c(C(F)(F)F)c1-c1cc(N2CCOC[C@H]2C)nc(-c2cncc3[nH]ccc23)n1")
80

For each listed entry, give its IC50.
1. Cc1c(-c2cc(N3CCOC[C@H]3C)nc(-c3ccnc4[nH]ccc34)n2)c(C(F)(F)F)nn1C1CCNCC1 [Compound D2]
2. CNc1nc2cc(F)ccc2n1-c1nc(-c2c(C)nn(C3CCNCC3)c2C(F)(F)F)cc(N2CCOC[C@H]2C)n1
3. CNc1nc2ccccc2n1-c1nc(-c2c(C)nn(CS(C)(=O)=O)c2C(F)(F)F)cc(N2CCOC[C@H]2C)n1
4. CNc1nc2ccccc2n1-c1nc(-c2c(C)nn(C3CCNCC3)c2C(F)(F)F)cc(N2CCOC[C@H]2C)n1

1. 780
2. 330
3. 540
4. 80

* * *

# procedure-details: In vitro liver microsomal stability assay, mouse
# Assay type: in vitro ADME
# condition-parameters: mouse liver microsomes, final concentration 2.0 nM, with or without NADPH, within 60 minutes; read-out: Mouse liver microsomes t1/2
measured-attribute: half-life at 2 nM (h)
Numbers only, in h.

// worked examples, half-life at 2 nM included
>>> experimental_result("Cc1nn(C2CCNCC2)c(C(F)(F)F)c1-c1cc(N2CCOC[C@H]2C)nc(-c2cccc3[nH]ccc23)n1 [Compound D17]")
2.83
>>> experimental_result("CNc1nc2ccccc2n1-c1nc(-c2c(C)nn(C3CCNCC3)c2C(F)(F)F)cc(N2CCOC[C@H]2C)n1 [Compound D24]")
1.83

The reported half-life at 2 nM of the molecule Cc1nn(C2CCNCC2)c(C(F)(F)F)c1-c1cc(N2CCOC[C@H]2C)nc(-c2ccnc3[nH]ccc23)n1 [Compound D1] was 1.03

* * *

# System: MV4-11 (leukemia) cells
# procedure-details: In vitro cell proliferation inhibition assay (CellTiter-Glo), MV4-11
# Assay type: cell-based, human
# condition-parameters: MV4-11 cells, 120 hours
Answer each item with its documented IC50.

Record excerpt, results attached:
>>> experimental_result("Cc1c(-c2cc(N3CCOC[C@H]3C)nc(-c3cc(F)cc4[nH]ccc34)n2)c(C(F)(F)F)nn1C1CC2(CNC2)C1")
"810 nM"
>>> experimental_result("CNc1nc2ccccc2n1-c1nc(-c2c(C(F)(F)F)nn(C3CCCNC3)c2C)cc(N2CCOC[C@H]2C)n1 (stereo partly shown)")
"640 nM"
>>> experimental_result("CNc1nc2ccccc2n1-c1nc(-c2c(C(F)(F)F)nn(C3CCNCC3)c2C)cc(N2CCOC[C@H]2C)n1")
"320 nM"

Now take the following compound into account.
The compound listed as Cc1nn(C2CCN(C)CC2)c(C)c1-c1cc(N2CCOC[C@H]2C)nc(-c2ccnc3[nH]ccc23)n1 has a reported IC50 of 190 nM

* * *

Hi there, I'd appreciate the recorded AUC for every entry that follows.
# procedure-details: In vivo pharmacokinetics assay in mice
# condition-parameters: mouse; male ICR mice, oral gavage 10 mg/kg, plasma
Answers are plain numbers, in ng·h/mL.

>>> experimental_result("Cc1nn(C2CCNCC2)c(C(F)(F)F)c1-c1cc(N2CCOC[C@H]2C)nc(-c2cc(F)cc3[nH]ccc23)n1")
2160

The compound identified as CNc1nc2ccccc2n1-c1nc(-c2c(C)nn(C3CCNCC3)c2C(F)(F)F)cc(N2CCOC[C@H]2C)n1 registered its AUC at 5450

* * *

# Tested on: MV4-11 (leukemia) cells
# procedure-details: In vitro cell proliferation inhibition assay (CellTiter-Glo), MV4-11
# Assay type: cell-based, human
# condition-parameters: MV4-11 cells, 120 hours
So I've got a bunch of compounds here, and I need their pIC50 values.
Answers are plain numbers, as −log10 of the molar value.

Look over these answered cases.
>>> experimental_result("Cc1nn(C2CCNCC2)c(C(F)(F)F)c1-c1cc(N2CCOC[C@H]2C)nc(-n2cnc3cc(F)ccc32)n1 [Compound D30a]")
6.39
>>> experimental_result("Cc1nn(C2CCNCC2)c(C(F)(F)F)c1-c1cc(N2CCOC[C@H]2C)nc(-n2cnc3ccc(F)cc32)n1 [Compound D30b]")
6.48

I need pIC50 for every entry listed below, if you could help.
1. Cc1nn(C2CCNCC2)c(C(F)(F)F)c1-c1cc(N2CCOC[C@H]2C)nc(-n2cnc3ccccc32)n1
2. Cc1nn(C2CCNCC2)c(C(F)(F)F)c1-c1nc(-c2ccnc3[nH]ccc23)nc(N2CCOC[C@H]2C)c1F

1: 6.28; 2: 6.43

* * *

Form: system (ATR kinase (Homo sapiens (Human), UniProt Q13535)), quantity (log10(IC50)), values below.
Form field - Quantity: IC50; Unit: nM; Scale: log10

>>> experimental_result("Cc1nn(CC2CCOC2)c(C)c1-c1cc(N2CCOC[C@H]2C)nc(-c2ccnc3[nH]ccc23)n1 (stereo partly shown)")
1.40
>>> experimental_result("C[C@@H]1COCCN1c1cc(-c2ccnn2C2CCCCC2)nc(-c2ccnc3[nH]ccc23)n1")
3.36
>>> experimental_result("CCN(C)S(=O)(=O)c1ccc(C(C)C)c(-c2cc(N3CCOC[C@H]3C)nc(-c3ccnc4[nH]ccc34)n2)c1")
2.97
>>> experimental_result("Cc1c(-c2cc(N3CCOC[C@H]3C)nc(-c3cc(F)cc4[nH]ccc34)n2)c(C(F)(F)F)nn1C1CC2(CNC2)C1")
0.48
>>> experimental_result("Cc1nn(C2CCNCC2)c(C(F)(F)F)c1-c1cc(N2CCOC[C@H]2C)nc(-c2cncc3[nH]ccc23)n1")
0.00
>>> experimental_result("Cc1nn(C2CCNCC2)c(C(F)(F)F)c1-c1cc(N2CCOC[C@H]2C)nc(-n2c(N)nc3cc(F)ccc32)n1")
0.00

// below: log10(IC50) requested for another molecule
Test item CNc1nc2cc(F)ccc2n1-c1nc(-c2c(C)nn(C3CCNCC3)c2C(F)(F)F)c(F)c(N2CCOC[C@H]2C)n1 ; ATR kinase (Homo sapiens (Human), UniProt Q13535); reported log10(IC50) was 0.90

* * *

# System: MV4-11 (leukemia) cells
# procedure-details: In vitro cell proliferation inhibition assay (CellTiter-Glo), MV4-11
# Assay type: cell-based, human
# condition-parameters: Homo sapiens, MV4-11, 120 h, MV4-11 cells
measured-attribute: pIC50
Give bare numbers, as −log10 of the molar value.

For each listed entry, give its pIC50.
1. CNc1nc2cc(F)ccc2n1-c1nc(-c2c(C)nn(CS(C)(=O)=O)c2C(F)(F)F)cc(N2CCOC[C@H]2C)n1 [Compound D41]
2. CNc1nc2cc(F)ccc2n1-c1nc(-c2c(C(F)(F)F)nn(CS(C)(=O)=O)c2C)cc(N2CCOC[C@H]2C)n1 [Compound D42]
3. Cc1nn(C2CCNCC2)c(C(F)(F)F)c1-c1cc(N2CCOC[C@H]2C)nc(-n2c(N)nc3cc(F)ccc32)n1 [Compound D7]
4. Cc1nn([C@H]2CCNCC2(F)F)c(C)c1-c1cc(N2CCOC[C@H]2C)nc(-c2cc(F)cc3[nH]ccc23)n1 [Compound D54a]
5. Cc1nn(C2CCNCC2)c(C(F)(F)F)c1-c1cc(N2CCOC[C@H]2C)nc(-c2ccnc3[nH]ccc23)n1 [Compound D1]
6. Cc1nn(C2CCNCC2)c(C(F)(F)F)c1-c1cc(N2CCOC[C@H]2C)nc(-n2c(NC(=O)C3CC3)nc3ccccc32)n1 [Compound D21]
7. Cc1c(-c2cc(N3CCOC[C@H]3C)nc(-c3ccnc4[nH]ccc34)n2)c(C(F)(F)F)nn1C1CCCNC1 (stereo partly shown) [Compound D12]
8. CNc1nc2cc(F)ccc2n1-c1nc(-c2c(C)nn(CC3CCCNC3)c2C(F)(F)F)cc(N2CCOC[C@H]2C)n1 (stereo partly shown) [Compound D39]

1. 6.24
2. 5.76
3. 6.51
4. 7.05
5. 6.92
6. 6.72
7. 6.54
8. 5.91

* * *

ATR kinase (Homo sapiens (Human), UniProt Q13535): recorded pIC50 for assorted compounds
Sequence (Q13535 whole entry): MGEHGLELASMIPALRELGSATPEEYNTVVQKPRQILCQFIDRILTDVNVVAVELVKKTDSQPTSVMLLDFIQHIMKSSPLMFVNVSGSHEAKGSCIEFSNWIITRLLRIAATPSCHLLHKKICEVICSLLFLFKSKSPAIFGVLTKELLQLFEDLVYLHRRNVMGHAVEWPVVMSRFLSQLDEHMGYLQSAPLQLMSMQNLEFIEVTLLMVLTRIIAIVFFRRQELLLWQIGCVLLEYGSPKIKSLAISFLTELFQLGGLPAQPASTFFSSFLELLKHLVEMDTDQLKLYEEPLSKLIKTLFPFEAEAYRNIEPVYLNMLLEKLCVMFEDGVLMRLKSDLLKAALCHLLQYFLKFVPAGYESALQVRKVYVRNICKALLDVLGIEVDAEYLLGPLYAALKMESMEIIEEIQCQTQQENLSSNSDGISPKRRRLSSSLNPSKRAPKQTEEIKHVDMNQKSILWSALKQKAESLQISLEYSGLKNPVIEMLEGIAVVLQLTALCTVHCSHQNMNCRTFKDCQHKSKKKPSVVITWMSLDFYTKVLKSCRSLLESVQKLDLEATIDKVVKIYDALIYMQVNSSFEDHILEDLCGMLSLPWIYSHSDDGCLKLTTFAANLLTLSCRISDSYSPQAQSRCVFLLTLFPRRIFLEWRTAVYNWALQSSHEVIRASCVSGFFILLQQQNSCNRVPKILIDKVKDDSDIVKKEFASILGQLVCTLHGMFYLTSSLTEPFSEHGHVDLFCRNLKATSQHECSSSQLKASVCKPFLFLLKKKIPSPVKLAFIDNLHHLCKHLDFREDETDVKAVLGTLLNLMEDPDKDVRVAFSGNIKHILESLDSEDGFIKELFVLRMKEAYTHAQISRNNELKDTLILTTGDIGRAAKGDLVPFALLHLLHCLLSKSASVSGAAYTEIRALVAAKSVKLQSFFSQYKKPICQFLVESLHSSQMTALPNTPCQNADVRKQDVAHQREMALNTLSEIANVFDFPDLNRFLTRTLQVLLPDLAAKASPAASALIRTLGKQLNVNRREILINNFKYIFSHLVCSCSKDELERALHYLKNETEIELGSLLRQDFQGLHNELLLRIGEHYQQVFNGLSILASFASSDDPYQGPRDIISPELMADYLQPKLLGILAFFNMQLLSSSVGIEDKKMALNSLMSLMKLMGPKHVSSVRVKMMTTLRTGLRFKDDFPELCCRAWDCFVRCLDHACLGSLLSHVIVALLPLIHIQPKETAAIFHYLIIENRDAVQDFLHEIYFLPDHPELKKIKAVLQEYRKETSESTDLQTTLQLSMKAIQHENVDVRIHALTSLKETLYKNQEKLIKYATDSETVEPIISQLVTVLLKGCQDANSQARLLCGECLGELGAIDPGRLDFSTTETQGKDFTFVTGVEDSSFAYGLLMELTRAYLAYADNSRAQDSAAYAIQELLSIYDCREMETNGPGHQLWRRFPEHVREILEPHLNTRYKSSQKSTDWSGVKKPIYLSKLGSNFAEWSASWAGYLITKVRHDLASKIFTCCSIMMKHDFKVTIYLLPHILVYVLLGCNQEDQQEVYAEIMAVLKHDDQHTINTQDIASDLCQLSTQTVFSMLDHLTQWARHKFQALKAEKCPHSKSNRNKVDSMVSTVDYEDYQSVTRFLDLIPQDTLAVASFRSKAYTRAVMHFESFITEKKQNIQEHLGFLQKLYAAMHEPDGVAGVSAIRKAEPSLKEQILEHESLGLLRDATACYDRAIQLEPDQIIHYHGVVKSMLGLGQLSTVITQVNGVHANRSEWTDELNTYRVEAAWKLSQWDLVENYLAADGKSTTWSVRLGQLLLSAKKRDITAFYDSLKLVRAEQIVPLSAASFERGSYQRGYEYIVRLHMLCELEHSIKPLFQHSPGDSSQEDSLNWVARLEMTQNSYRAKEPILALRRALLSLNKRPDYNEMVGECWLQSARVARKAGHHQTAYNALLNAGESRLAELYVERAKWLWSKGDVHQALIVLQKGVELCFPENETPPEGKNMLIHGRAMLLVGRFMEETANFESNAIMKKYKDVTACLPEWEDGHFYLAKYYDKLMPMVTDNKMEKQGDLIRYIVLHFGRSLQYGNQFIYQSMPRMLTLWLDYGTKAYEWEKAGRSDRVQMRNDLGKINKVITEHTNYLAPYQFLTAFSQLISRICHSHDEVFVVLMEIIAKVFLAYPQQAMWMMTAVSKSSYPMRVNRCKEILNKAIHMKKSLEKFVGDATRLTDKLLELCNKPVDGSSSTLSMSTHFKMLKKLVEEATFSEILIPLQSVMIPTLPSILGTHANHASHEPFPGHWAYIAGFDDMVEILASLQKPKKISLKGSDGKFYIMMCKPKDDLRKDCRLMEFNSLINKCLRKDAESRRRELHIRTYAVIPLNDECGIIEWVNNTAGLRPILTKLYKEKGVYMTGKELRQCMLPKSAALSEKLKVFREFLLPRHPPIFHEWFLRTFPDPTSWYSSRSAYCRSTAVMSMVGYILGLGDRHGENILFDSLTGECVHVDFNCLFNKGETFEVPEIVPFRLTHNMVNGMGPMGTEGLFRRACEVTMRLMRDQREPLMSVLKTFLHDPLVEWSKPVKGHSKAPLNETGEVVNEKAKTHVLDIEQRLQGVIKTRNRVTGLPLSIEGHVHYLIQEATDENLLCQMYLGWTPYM
Sequence (Q8WXE1 whole entry partner): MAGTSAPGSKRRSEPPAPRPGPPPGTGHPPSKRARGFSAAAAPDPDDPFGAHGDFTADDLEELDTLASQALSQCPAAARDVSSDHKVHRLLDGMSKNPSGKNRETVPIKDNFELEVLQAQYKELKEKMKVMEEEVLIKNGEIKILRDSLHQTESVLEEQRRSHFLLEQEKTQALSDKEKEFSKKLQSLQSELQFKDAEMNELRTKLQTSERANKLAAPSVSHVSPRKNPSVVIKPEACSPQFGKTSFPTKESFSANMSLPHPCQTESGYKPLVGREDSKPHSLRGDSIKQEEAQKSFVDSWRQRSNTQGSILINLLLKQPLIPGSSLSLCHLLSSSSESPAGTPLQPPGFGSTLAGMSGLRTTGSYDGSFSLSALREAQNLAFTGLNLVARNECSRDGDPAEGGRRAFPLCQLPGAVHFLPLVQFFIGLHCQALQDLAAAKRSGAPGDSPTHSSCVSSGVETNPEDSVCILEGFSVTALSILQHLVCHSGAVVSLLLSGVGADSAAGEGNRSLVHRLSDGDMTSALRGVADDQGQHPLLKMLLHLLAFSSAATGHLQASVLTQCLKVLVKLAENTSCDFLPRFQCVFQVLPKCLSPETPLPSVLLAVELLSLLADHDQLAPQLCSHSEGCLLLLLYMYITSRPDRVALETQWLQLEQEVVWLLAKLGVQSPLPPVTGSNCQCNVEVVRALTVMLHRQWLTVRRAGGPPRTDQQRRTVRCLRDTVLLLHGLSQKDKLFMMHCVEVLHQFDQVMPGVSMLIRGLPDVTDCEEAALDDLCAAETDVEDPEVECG
Give bare numbers, as −log10 of the molar value.

See these solved cases before continuing.
>>> experimental_result("Cc1nn(CCN(C)C)c(C)c1-c1cc(N2CCOC[C@H]2C)nc(-c2ccnc3[nH]ccc23)n1")
7.25
>>> experimental_result("C[C@@H]1COCCN1c1cc(-c2cccc(S(C)(=O)=O)c2)nc(-c2ccnc3[nH]ccc23)n1")
6.75
>>> experimental_result("Cc1nn(C2CCN(C)CC2)c(C)c1-c1cc(N2CCOC[C@H]2C)nc(-c2ccnc3[nH]ccc23)n1 [Compound D4]")
8.22

Batch request: pIC50 for each of the following compounds.
1. Cc1nn(C[C@H]2CCCN2)c(C(F)(F)F)c1-c1cc(N2CCOC[C@H]2C)nc(-c2cc(F)cc3[nH]ccc23)n1
2. Cc1nn(CCCO)c(C)c1-c1cc(N2CCOC[C@H]2C)nc(-c2ccnc3[nH]ccc23)n1
3. Cc1nn(C2CCNCC2)c(C(F)(F)F)c1-c1cc(N2CCOC[C@H]2C)nc(-c2ccnc3[nH]ccc23)n1 [Compound D1]
4. Cc1nn(C2CCNCC2)c(C(F)(F)F)c1-c1cc(N2CCOC[C@H]2C)nc(-n2cnc3ccc(F)cc32)n1 [Compound D30b]

1: 8.40; 2: 7.82; 3: 8.30; 4: 7.27

Report pIC50 for every entry below.
1. CNc1nc2cc(F)ccc2n1-c1nc(-c2c(C)nn(CC3CCCNC3)c2C(F)(F)F)cc(N2CCOC[C@H]2C)n1 (some centres unmarked)
2. Cc1nn(C2CCN(C)CC2)c(C)c1-c1cc(N2CCOC[C@H]2C)nc(-c2ccnc3[nH]ccc23)n1 [Compound A37]
3. Cc1ccc(S(=O)(=O)C2CCN(C)CC2)cc1-c1cc(N2CCOC[C@H]2C)nc(-c2ccnc3[nH]ccc23)n1
4. CCN1CCC(n2nc(C)c(-c3cc(N4CCOC[C@H]4C)nc(-c4ccnc5[nH]ccc45)n3)c2C)CC1

1: 8.52; 2: 7.43; 3: 7.04; 4: 7.01
